The following compounds are shown together with reported z-score values.
- test_name: modulators of mitochondrial supercomplex assembly, cell-based, luminescence, Hoechst nuclei count (AID 1645838);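 note: control cybrid cells; higher means more mitochondrial supercomplex formation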
- cond: Cells, luminescence/Hoechst cell count ratio, supercomplex reporter; stronger effect = higher value
The whole screen tested about 2,000 compounds, of which about 100 (5%) were called active. The entries come from a sample that favours actives as a whole.
measured_parameter: z-score

compound_smiles: CCCCCCC(=O)CCCCCC/C=C/C[C@@H](O)[C@H](O)[C@@](N)(CO)C(=O)O
measured_parameter: z-score
result_number: 5.47
//
compound_smiles: CCCCCCC(=O)O[C@H]1CC[C@H]2[C@@H]3C=CC4=CC(=O)CC[C@]4(C)[C@H]3CC[C@]12C
measured_parameter: z-score
result_number: -0.283
//
compound_smiles: CCCN(CCCN)N(O)N=O
measured_parameter: z-score
result_number: 0.0434
//
compound_smiles: CCCCCCCC/C=C\CCCCCCCC(=O)N[C@H](C)CO
measured_parameter: z-score
result_number: 0.127
